Recorded inhibition at 10 µM for the following compounds
- systemTested: Recombinant human GR (Homo sapiens (Human))
- Sequence (P04150 whole entry): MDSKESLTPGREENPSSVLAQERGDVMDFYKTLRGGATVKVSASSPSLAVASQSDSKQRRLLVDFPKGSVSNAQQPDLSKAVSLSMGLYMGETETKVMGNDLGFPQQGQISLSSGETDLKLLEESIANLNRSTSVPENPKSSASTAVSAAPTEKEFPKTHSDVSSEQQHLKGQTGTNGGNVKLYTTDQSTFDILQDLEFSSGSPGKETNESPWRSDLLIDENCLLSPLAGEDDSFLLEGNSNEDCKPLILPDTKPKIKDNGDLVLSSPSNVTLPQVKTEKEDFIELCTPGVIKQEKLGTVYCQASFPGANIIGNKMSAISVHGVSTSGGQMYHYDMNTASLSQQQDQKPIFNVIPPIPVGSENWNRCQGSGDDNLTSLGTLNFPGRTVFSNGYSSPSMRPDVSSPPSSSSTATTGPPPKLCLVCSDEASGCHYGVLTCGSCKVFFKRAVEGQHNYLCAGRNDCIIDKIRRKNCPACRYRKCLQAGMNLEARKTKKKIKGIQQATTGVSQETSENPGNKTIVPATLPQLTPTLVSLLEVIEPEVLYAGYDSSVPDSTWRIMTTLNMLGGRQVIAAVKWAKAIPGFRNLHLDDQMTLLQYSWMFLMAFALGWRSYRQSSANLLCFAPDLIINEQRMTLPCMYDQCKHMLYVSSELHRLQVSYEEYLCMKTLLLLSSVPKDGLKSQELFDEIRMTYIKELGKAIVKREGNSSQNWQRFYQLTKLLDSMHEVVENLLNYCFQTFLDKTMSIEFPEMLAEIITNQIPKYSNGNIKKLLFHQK
- experimentalProtocol: GR competitive binding assay by fluorescence polarization
- conditionSet: 20 μM test compound solution, 10 μL/well; 2 hours; DEX positive control; read-out: GR binding rate (%)
Structures can show the parent of a compound that is named as a salt.
assayReadout: inhibition at 10 µM (%)

compound: CCOC(=O)C(O)COc1ccc(-c2ccc3c(c2COc2cc(F)ccc2C)N(C)C(=O)C(C)(C)N3)c(OC)c1 (stereo in doubt) [Compound 1-6]
assayReadout: inhibition at 10 µM
signQualifier: =
val: 87
//
compound: COc1ccc(-c2ccc3c(c2COc2cc(F)ccc2C)N(C)C(=O)C(C)(C)N3)c(OC)c1 [Control compound E, reference compound]
assayReadout: inhibition at 10 µM
signQualifier: =
val: 98
//
compound: COc1cc(OC[C@@H](C)O)ccc1-c1ccc2c(c1COc1cc(F)ccc1C)N(C)C(=O)C(C)(C)N2 [Compound 1-3]
assayReadout: inhibition at 10 µM
signQualifier: =
val: 95
//
compound: COc1cc(OC[C@@H](O)CC#N)ccc1-c1ccc2c(c1COc1cc(F)ccc1C)N(C)C(=O)C(C)(C)N2 [Compound 5-2]
assayReadout: inhibition at 10 µM
signQualifier: >
val: 99
//
compound: CCCC(=O)Oc1ccc(-c2ccc3c(c2COc2cc(F)ccc2C)N(C)C(=O)C(C)(C)N3)c(OC)c1 [Control compound D, reference compound]
assayReadout: inhibition at 10 µM
signQualifier: =
val: 98
//
compound: COc1cc(OC[C@H](C)OC(=O)[C@@H](N)C(C)C)ccc1-c1ccc2c(c1COc1cc(F)ccc1C)N(C)C(=O)C(C)(C)N2 [Compound 11-5, hydrochloride]
assayReadout: inhibition at 10 µM
signQualifier: >
val: 99

Source: patent US10189796B2
